Molecular target: Human immunodeficiency virus type 1 reverse transcriptase (Human immunodeficiency virus 1)
Assay: Inhibition of HIV1 wild type reverse transcriptase
Returns one of Y or N; Y when log(1/C) is >= 9.

These recorded examples may help you get a feel for the data.
Smiles string: Cc1cc(C#N)cc(C)c1Nc1ccnc(Nc2ccc(C#N)cc2)n1
Class: Y
//
Smiles string: Cc1cc(Cl)cc(C)c1Nc1ccnc(Nc2ccc(C#N)cc2)n1
Class: N

Quick check: does "Cc1cc(C)c(Sc2ccnc(Nc3ccc(C#N)cc3)n2)c(C)c1" have log(1/C) greater than or equal to 9?
N

---

System: Human immunodeficiency virus type 1 reverse transcriptase (Human immunodeficiency virus 1), Q72547 [[…]]
Assay: Inhibition of HIV1 reverse transcriptase Y188L mutant
In this section we review reported log(1/C) values for a set of compounds.
When you answer, write just the number.

Smiles string: Cc1cc(C)c(Sc2ccnc(Nc3ccc(C#N)cc3)n2)c(C)c1
log(1/C): 7.7

Smiles string: Cc1cc(Br)cc(C)c1Nc1ccnc(Nc2ccc(C#N)cc2)n1
log(1/C): 7.16

Consider the compound "Cc1cc(C#N)cc(C)c1Oc1ccnc(Nc2ccc(C#N)cc2)n1" and give its measured log(1/C).
7.72

Consider the compound "Cc1cc(C#N)cc(C)c1Oc1nc(Nc2ccc(C#N)cc2)ncc1N" and give its measured log(1/C).
8.24

Consider the compound "Cc1cnc(Nc2ccc(C#N)cc2)nc1Nc1c(C)cc(C#N)cc1C" and give its measured log(1/C).
7.8

Consider the compound "Cc1cc(C#N)cc(C)c1Oc1nc(Nc2ccc(C#N)cc2)ncc1[N+](=O)[O-]" and give its measured log(1/C).
6.11
